# runDescription: Tissue distribution of Compound A in mice with mammary C/16 adenocarcinomas (first method: liver, heart, kidney, lung, spleen, tumor)
# Assay type: in vivo, C3H/HeN female mice
# experimentalContext: mouse, tumor/plasma, iv, 40 mg/kg, 0.25 h; mice with tumors; single mice; read-out: Tissue/Plasma Ratio, TUMOR
quantityMeasured: Kp at 0.25 h
Respond numerically, and do not add a unit to the figure.

Record request: Kp at 0.25 h value, item CC(=O)O[C@H]1C(=O)[C@]23C[C@H]2C[C@H]2OC[C@@]2(OC(C)=O)[C@H]3[C@H](OC(=O)c2ccccc2)[C@]2(O)C[C@H](OC(=O)[C@H](O)[C@@H](NC(=O)OC(C)(C)C)c3ccccc3)C(C)=C1C2(C)C
0.58

The origin of these recorded values is patent US6156789A.
